Hey, just so you know, these numbers are from ChEMBL document CHEMBL3259745.

assay: Cytotoxicity against HEK293T cells expressing FXR and beta-lactamase genes assessed as inhibition of cell viability at 40 uM after 16 hrs by CellTiter-Glo luminescent assay relative to control; type: cell-based, HEK-293T; details: human, read-out: INH
Recorded cytotoxicity at 16 h, 40 µM values for a group of compounds are listed next.

Lab note: Cc1ccc(-c2nn(C(C)C)cc2CNc2ccc(C)c(S(=O)(=O)N3CCOCC3)c2)cc1 gave cytotoxicity at 16 h, 40 µM of 10.5%

* * *

Target: Bile acid receptor (Homo sapiens) (UniProt Q96RI1)
Sequence (whole entry): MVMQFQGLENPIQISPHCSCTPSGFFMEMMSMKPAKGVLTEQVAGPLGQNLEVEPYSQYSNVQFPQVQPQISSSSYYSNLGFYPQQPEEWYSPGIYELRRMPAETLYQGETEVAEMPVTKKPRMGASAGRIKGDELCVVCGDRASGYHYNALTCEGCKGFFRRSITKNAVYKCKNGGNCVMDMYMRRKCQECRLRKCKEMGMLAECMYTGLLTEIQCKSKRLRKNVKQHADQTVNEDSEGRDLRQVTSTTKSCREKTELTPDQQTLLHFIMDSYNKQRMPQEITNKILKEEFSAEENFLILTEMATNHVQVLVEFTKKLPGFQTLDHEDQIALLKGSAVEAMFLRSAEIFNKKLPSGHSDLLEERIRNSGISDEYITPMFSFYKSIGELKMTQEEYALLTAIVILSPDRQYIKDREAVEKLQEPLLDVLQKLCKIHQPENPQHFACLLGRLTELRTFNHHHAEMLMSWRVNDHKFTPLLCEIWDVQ
Test: Inhibition of GW4064-induced transactivation of FXR (unknown origin) expressed in HEK293T cells at 40 uM after 16 hrs by beta-lactamase reporter gene assay relative to control
Type: cell-based
Conditions: HEK-293T
readout.name: inhibition

Cc1ccc(NC(=O)c2cnn(-c3cccnc3)c2)cc1S(=O)(=O)N1CCOCC1 ... 16.1%
Cc1ccc(-c2nn(Cc3cccc(C(F)(F)F)c3)cc2C(=O)Nc2ccc(C)c(S(=O)(=O)N3CCOCC3)c2)cc1 ... 93.4%
Cc1ccc(-c2nn(C(C)C)cc2CNc2ccc(C)c(S(=O)(=O)N3CCOCC3)c2)cc1 ... 36.8%
Cc1ccc(NC(=O)c2c(C)nn(-c3ccccc3)c2C)cc1S(=O)(=O)N1CCOCC1 ... 99%
O=C(Nc1ccc(S(=O)(=O)N2CCOCC2)cc1)c1cn(-c2ccccc2)nc1-c1ccccc1 ... 18.6%

Lab note: O=C(Nc1cccc(S(=O)(=O)N2CCOCC2)c1)c1cn(-c2ccccc2)nc1-c1ccccc1 gave inhibition of 54.9%

Lab note: COc1cccc(Cn2cc(C(=O)N(C)c3ccc(C)c(S(=O)(=O)N4CCOCC4)c3)c(-c3cccc(OC)c3)n2)c1 gave inhibition of 23.8%

Lab note: COc1cccc(Cn2cc(CNc3ccc(C)c(S(=O)(=O)N4CCOCC4)c3)c(-c3cccc(OC)c3)n2)c1 gave inhibition of 3.1%

Lab note: COCCc1nn(C(C)C)cc1C(=O)Nc1ccc(C)c(S(=O)(=O)N2CCOCC2)c1 gave inhibition of 62.5%

Lab note: Cc1ccc(-c2nn(-c3ccc(F)cc3)cc2C(=O)Nc2ccc(C)c(S(=O)(=O)N3CCOCC3)c2)cc1 gave inhibition of 72%

Lab note: Cc1ccc(-c2nn(-c3nc4ccccc4s3)cc2C(=O)Nc2ccc(C)c(S(=O)(=O)N3CCOCC3)c2)cc1 gave inhibition of 79.1%

* * *

Target: Bile acid receptor (Homo sapiens)
Sequence (whole entry): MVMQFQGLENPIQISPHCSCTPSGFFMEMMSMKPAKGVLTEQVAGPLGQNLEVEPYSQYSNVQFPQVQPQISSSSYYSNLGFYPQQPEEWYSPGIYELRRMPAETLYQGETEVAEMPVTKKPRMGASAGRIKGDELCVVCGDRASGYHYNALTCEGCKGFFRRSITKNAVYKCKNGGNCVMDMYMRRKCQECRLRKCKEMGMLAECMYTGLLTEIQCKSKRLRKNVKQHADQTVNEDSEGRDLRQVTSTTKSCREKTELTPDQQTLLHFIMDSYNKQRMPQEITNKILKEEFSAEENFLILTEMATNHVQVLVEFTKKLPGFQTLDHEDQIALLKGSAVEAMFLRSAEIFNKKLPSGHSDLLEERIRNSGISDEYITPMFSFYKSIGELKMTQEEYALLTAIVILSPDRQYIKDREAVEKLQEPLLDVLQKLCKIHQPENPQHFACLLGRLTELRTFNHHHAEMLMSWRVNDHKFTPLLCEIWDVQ
Assay: Antagonist activity at human GST-tagged FXR at 40 uM after 20 mins by TR-FRET assay relative to control
Recorded inhibition values for a group of molecules are listed next.

Solved entries (count: 3):
COCCc1nn(C(C)C)cc1C(=O)Nc1ccc(C)c(S(=O)(=O)N2CCOCC2)c1 ... 98.2%
COc1cccc(Cn2cc(C(=O)N(C)c3ccc(C)c(S(=O)(=O)N4CCOCC4)c3)c(C(C)C)n2)c1 ... 80.3%
Cc1ccc(-c2nn(C(C)C)cc2C(=O)N(C)c2ccc(C)c(S(=O)(=O)N3CCOCC3)c2)cc1 ... 133%

Kindly consider the entry below.
Lab note: COc1cccc(Cn2cc(C(=O)N(C)c3ccc(C)c(S(=O)(=O)N4CCOCC4)c3)c(-c3cccc(OC)c3)n2)c1 gave inhibition of 69.7%

* * *

Target: UniProt Q96RI1
Sequence (whole entry): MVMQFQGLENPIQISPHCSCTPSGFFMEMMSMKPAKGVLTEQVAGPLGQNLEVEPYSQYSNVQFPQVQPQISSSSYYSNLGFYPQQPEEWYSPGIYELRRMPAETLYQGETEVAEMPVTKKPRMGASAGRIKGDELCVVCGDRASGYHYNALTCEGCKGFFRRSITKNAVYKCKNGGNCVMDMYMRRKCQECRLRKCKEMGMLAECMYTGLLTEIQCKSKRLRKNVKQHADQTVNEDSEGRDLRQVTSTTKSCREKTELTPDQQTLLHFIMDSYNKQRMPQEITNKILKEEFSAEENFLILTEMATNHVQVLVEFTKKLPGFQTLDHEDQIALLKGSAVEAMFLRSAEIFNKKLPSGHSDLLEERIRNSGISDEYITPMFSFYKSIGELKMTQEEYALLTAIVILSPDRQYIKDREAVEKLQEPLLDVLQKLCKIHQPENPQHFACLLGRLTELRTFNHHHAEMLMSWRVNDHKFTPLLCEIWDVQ
Test: Antagonist activity at human GST-tagged FXR at 164 nM after 20 mins by TR-FRET assay relative to control
readout.name: inhibition (%)
Your answer is read as %, so omit the unit and give the number.

Cc1ccc(-c2nn(-c3nc4ccccc4s3)cc2C(=O)Nc2ccc(C)c(S(=O)(=O)N3CCOCC3)c2)cc1 ... 102
Cc1ccc(-c2nn(Cc3ccc4ccccc4c3)cc2C(=O)Nc2ccc(C)c(S(=O)(=O)N3CCOCC3)c2)cc1 ... 97.8
Cc1ccc(-c2nn(-c3ccccc3)cc2C(=O)Nc2ccc(C)c(S(=O)(=O)N3CCOCC3)c2)cc1 ... 100
Cc1ccc(-c2nn(-c3cccc(Cl)c3)cc2C(=O)Nc2ccc(C)c(S(=O)(=O)N3CCOCC3)c2)cc1 ... 99.3
COc1cccc(Cn2cc(C(=O)Nc3ccc(C)c(S(=O)(=O)N4CCOCC4)c3)c(-c3ccc(C)cc3)n2)c1 ... 130
Cc1ccc(-c2nn(-c3cccc(C(F)(F)F)c3)cc2C(=O)Nc2ccc(C)c(S(=O)(=O)N3CCOCC3)c2)cc1 ... 77.5

The compound O=C(Nc1ccc(S(=O)(=O)N2CCOCC2)cc1)c1cn(-c2ccccc2)nc1-c1ccc(F)cc1 , when measured on UniProt Q96RI1, yielded inhibition of 21.2

The compound Cc1ccc(-c2nn(-c3ccc(Cl)cc3Cl)cc2C(=O)Nc2ccc(C)c(S(=O)(=O)N3CCOCC3)c2)cc1 , when measured on UniProt Q96RI1, yielded inhibition of 120

The compound Cc1ccc(-c2nn(Cc3cccc(C(F)(F)F)c3)cc2C(=O)Nc2ccc(C)c(S(=O)(=O)N3CCOCC3)c2)cc1 , when measured on UniProt Q96RI1, yielded inhibition of 99.2

The compound COc1cccc(Cn2cc(C(=O)Nc3ccc(C)c(S(=O)(=O)N4CCOCC4)c3)c(-c3ccc(C(F)(F)F)cc3)n2)c1 , when measured on UniProt Q96RI1, yielded inhibition of 109

* * *

Recorded inhibition values for a group of compounds are listed next.
Target: Bile acid receptor (Homo sapiens) (UniProt Q96RI1)
Sequence (whole entry): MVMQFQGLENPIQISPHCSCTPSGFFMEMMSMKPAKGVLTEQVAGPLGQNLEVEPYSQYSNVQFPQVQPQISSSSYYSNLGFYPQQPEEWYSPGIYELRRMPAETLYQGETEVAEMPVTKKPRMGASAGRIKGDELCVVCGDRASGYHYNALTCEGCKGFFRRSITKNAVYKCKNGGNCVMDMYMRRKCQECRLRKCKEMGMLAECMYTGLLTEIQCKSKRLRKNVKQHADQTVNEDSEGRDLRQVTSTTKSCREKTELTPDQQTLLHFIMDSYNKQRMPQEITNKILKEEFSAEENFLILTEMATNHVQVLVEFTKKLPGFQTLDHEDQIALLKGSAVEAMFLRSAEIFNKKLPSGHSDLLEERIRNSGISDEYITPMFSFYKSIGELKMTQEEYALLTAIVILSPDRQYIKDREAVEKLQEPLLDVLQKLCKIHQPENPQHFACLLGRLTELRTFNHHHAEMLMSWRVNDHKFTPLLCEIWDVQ
Assay: Antagonist activity at human GST-tagged FXR at 13.3 uM after 20 mins by TR-FRET assay relative to control
Your answer is read as %, so omit the unit and give the number.

Solved entries (count: 4):
COc1cccc(-c2nn(C(C)C)cc2C(=O)Nc2ccc(C)c(S(=O)(=O)N3CCOCC3)c2)c1 ... 150
Cc1cccc(-n2ncc(C(=O)Nc3cccc(S(=O)(=O)N4CCOCC4)c3)c2C)c1 ... 85.1
Cc1ccc(-c2nn(C(C)C)cc2CNc2ccc(C)c(S(=O)(=O)N3CCOCC3)c2)cc1 ... 99.5
Cc1ccc(NC(=O)c2c(C)nn(-c3ccccc3)c2C)cc1S(=O)(=O)N1CCOCC1 ... 70.6

Kindly consider the entry below.
Lab note: COCCc1nn(Cc2cccc(OC)c2)cc1C(=O)Nc1ccc(C)c(S(=O)(=O)N2CCOCC2)c1 gave inhibition of 114
